Can you tell me Ratio for the items I'm about to list?
# Assay Notes: Discrimination ratio against SERT as ratio of IC50 to that of Ki uptake to SERT.
# Assay type: functional

Worked examples, 5 compounds total:
OC1(c2ccc(Cl)cc2)c2ccccc2C2=N[C@H]3CCCC[C@@H]3N21 (stereo partly specified) ... > 17
OC1(c2ccc3ccccc3c2)c2ccc3ccccc3c2C2=NCCN21 (stereo unspecified) ... 34
OC1(c2ccc(Cl)cc2)c2ccc3ccccc3c2C2=NCCCN21 (stereo unspecified) ... 127
OC1(c2ccc3ccccc3c2)c2ccccc2C2=NCCN21 (stereo unspecified) ... 0.8
OC1(c2ccc(Cl)cc2)c2ccccc2C2=NCCCN21 (stereo unspecified) ... 1.4

The record that follows has no Ratio shown yet.
Name the reported Ratio value associated with the compound OC1(c2ccc(Cl)cc2)c2ccc3ccccc3c2C2=NCCN21 (stereo unspecified)
14.3

###

# Subject Of Test: Sodium-dependent dopamine transporter (Homo sapiens, UniProt Q01959)
# Sequence (Q01959 whole entry): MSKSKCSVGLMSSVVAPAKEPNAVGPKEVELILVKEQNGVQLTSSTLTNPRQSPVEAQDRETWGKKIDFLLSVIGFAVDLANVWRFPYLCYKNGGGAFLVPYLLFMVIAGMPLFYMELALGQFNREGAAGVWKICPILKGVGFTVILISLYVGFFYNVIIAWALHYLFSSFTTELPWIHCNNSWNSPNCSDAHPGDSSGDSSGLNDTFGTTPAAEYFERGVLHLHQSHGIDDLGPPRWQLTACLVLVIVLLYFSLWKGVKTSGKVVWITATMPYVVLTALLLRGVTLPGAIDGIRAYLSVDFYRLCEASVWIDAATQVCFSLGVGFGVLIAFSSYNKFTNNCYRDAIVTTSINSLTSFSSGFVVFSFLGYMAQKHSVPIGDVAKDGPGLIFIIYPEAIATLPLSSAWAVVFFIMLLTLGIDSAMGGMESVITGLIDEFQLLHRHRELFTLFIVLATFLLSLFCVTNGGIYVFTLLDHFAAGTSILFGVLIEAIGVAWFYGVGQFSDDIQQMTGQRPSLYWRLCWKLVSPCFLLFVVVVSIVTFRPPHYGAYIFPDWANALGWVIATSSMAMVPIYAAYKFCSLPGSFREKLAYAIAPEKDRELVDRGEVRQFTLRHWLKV
# Assay Notes: Ratio of the IC50 value of Mazindol to that in guinea pig was determined
# Format: functional
# Measurement Setup: Cavia porcellus; target entry is the homologue from another species
Can you tell me Ratio for the items I'm about to list?

Please give Ratio for each item listed below.
1. OC1(c2ccc(Cl)cc2)c2ccccc2-c2nc3ccccc3n21 (stereo not drawn)
2. OC1(c2ccc(Cl)cc2)c2ccc3ccccc3c2C2=N[C@H]3CCCC[C@@H]3N21 (mixture of isomers)

["< 0.02", "< 0.02"]

Name the reported Ratio value associated with the compound OC1(c2ccc(Cl)cc2)c2ccccc2C2=Nc3ccccc3CN21 (stereo not drawn)
< 0.02
